Tested on: COLO 205
Experiment: Growth inhibition of human COLO205 cells after 48 hrs by SRB assay
Type: functional
Details: COLO 205, 48 h
So I've got a bunch of compounds here, and I need their GI50 values.

**Query** Recorded GI50 of O=C(Nc1cc(C(F)(F)F)ccc1F)Nc1n[nH]c2ccccc12 , please.
**Result** > 100 µM

**Query** Recorded GI50 of Nc1nn(C(=O)Nc2c(F)cccc2F)c2ccccc12 , please.
**Result** < 100 µM

**Query** Recorded GI50 of COc1ccc(NC(=O)Nc2n[nH]c3ccccc23)cc1 , please.
**Result** > 100 µM

**Query** Recorded GI50 of COc1ccccc1NC(=O)n1nc(N)c2ccccc21 , please.
**Result** > 100 µM

**Query** Recorded GI50 of O=C(Nc1ccc(Cc2ccccc2)cc1)Nc1nn(C(=O)Nc2ccc(Cc3ccccc3)cc2)c2ccccc12 , please.
**Result** > 100 µM

* * *

System: UACC-62
Assay: Growth inhibition of human UACC62 cells after 48 hrs by SRB assay
Assay type: functional
Details: UACC-62, 48 h
Experimental Readout: GI50

**Query** Quick check: GI50 on UACC-62, item COc1ccccc1NC(=O)n1nc(N)c2ccccc21 ?
**Result** > 100 µM

**Query** Quick check: GI50 on UACC-62, item COc1ccc(NC(=O)Nc2n[nH]c3ccccc23)cc1 ?
**Result** > 100 µM

**Query** Quick check: GI50 on UACC-62, item O=C(Nc1cc(C(F)(F)F)ccc1F)Nc1n[nH]c2ccccc12 ?
**Result** > 100 µM

* * *

Test system: SF-268
Experiment: Growth inhibition of human SF268 cells after 48 hrs by SRB assay
Format: functional
Conditions: SF-268, 48 h
So I've got a bunch of compounds here, and I need their GI50 values.

**Query** Quick check: GI50 on SF-268, item COc1ccccc1NC(=O)n1nc(N)c2ccccc21 ?
**Result** > 100 µM

**Query** Quick check: GI50 on SF-268, item O=C(Nc1cc(C(F)(F)F)ccc1F)Nc1n[nH]c2ccccc12 ?
**Result** > 100 µM

**Query** Quick check: GI50 on SF-268, item COc1ccc(NC(=O)Nc2n[nH]c3ccccc23)cc1 ?
**Result** > 100 µM

* * *

Test system: HCT-15
Experiment: Growth inhibition of human HCT15 cells after 48 hrs by SRB assay
Format: functional
Settings: HCT-15, 48 h
Experimental Readout: GI50

**Query** Recorded GI50 of COc1ccc(NC(=O)Nc2n[nH]c3ccccc23)cc1 , please.
**Result** > 100 µM

**Query** Recorded GI50 of O=C(Nc1cc(C(F)(F)F)ccc1F)Nc1n[nH]c2ccccc12 , please.
**Result** > 100 µM

**Query** Recorded GI50 of O=C(Nc1ccc(Cc2ccccc2)cc1)Nc1nn(C(=O)Nc2ccc(Cc3ccccc3)cc2)c2ccccc12 , please.
**Result** > 100 µM

Data provenance: ChEMBL document CHEMBL1152860
